target: human JAK1 (a.a. 837-1142) (Homo sapiens, UniProt P23458); construct: human JAK1 (a.a. 837-1142); His tag (N); made in house; host or cells: insect cells (baculovirus); assay: In vitro JAK kinase assay (HTRF, phosphorylation of a biotinylated peptide), JAK1; format: biochemical; details: Table B1; read-out: JAK1 IC50
Sequence (P23458 849-1154): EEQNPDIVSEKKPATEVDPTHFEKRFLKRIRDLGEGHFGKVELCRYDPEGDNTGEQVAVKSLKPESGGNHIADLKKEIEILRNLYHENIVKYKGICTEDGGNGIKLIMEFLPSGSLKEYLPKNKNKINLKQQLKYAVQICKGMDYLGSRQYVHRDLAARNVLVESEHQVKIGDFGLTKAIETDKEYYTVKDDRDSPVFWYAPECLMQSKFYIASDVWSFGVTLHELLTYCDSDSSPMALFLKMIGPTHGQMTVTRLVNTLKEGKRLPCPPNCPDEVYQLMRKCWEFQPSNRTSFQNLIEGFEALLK
Counter-ions that a name gives are not always drawn.
Doc: threshold 6 nM (exclusive). Items with IC50 beneath it return Y; others return N.

Exercise: Does this compound meet the criterion IC50 < 6 nM? O=C(Nc1ccc2cc1CCc1cncc(c1)Nc1ncc(Cl)c(n1)N2)N1CCN(c2ccc(Cl)cc2)CC1 [Example B307, tris(trifluoroacetate)]
Solution: N

Exercise: Does this compound meet the criterion IC50 < 6 nM? CN(C)C(=O)Nc1ccc2cc1CCc1cccc(c1)Nc1ncc(Cl)c(n1)N2 [Example B239, trifluoroacetate]
Solution: N

Exercise: Does this compound meet the criterion IC50 < 6 nM? COCC(C)NC(=O)Nc1ccc2cc1CCc1cccc(c1)Nc1ncc(Cl)c(n1)N2 (stereo not shown)
Solution: N

Exercise: Does this compound meet the criterion IC50 < 6 nM? Cc1noc(C)c1S(=O)(=O)Nc1ccc2cc1CCc1cccc(c1)Nc1ncc(Cl)c(n1)N2 [Example B152, trifluoroacetate]
Solution: Y

Exercise: Does this compound meet the criterion IC50 < 6 nM? CCC(C)c1ccccc1NC(=O)Nc1ccc2cc1CCc1cccc(c1)Nc1ncc(Cl)c(n1)N2 (stereo not shown) [Example B126, trifluoroacetate]
Solution: N

Exercise: Does this compound meet the criterion IC50 < 6 nM? CC(=O)N1CCN(C(=O)Nc2ccc3cc2CCc2cncc(c2)Nc2ncc(Cl)c(n2)N3)CC1 [Example B317, bis(trifluoroacetate)]
Solution: N

Exercise: Does this compound meet the criterion IC50 < 6 nM? Cn1ccc(C(=O)Nc2ccc3cc2CCc2cccc(c2)Nc2ncc(Cl)c(n2)N3)n1 [Example B31, trifluoroacetate]
Solution: Y

* * *

target: human JAK1 (a.a. 837-1142) (Homo sapiens); construct: human JAK1 (a.a. 837-1142); His tag (N); made in house; host or cells: insect cells (baculovirus); experiment: In vitro JAK kinase assay (HTRF, phosphorylation of a biotinylated peptide), JAK1; assay type: biochemical; settings: Table B1; read-out: JAK1 IC50
Counter-ions that a name gives are not always drawn.
reported_endpoint: IC50 (nM)
Please give a number only; it is taken to be in nM.

Exercise: # return recorded IC50 for entry O=C(NCCO)Nc1ccc2cc1CCc1cccc(c1)Nc1ncc(Cl)c(n1)N2 [Example B241, trifluoroacetate]
Solution: 1.1

Exercise: # return recorded IC50 for entry CC(=O)N1CC[C@H](NC(=O)Nc2ccc3cc2CCc2cccc(c2)Nc2ncc(Cl)c(n2)N3)C1 [Example B168, trifluoroacetate]
Solution: 2.8

Exercise: # return recorded IC50 for entry Cc1cccc(C(=O)Nc2ccc3cc2CCc2cccc(c2)Nc2ncc(Cl)c(n2)N3)c1 [Example B46, trifluoroacetate]
Solution: 2.5

Exercise: # return recorded IC50 for entry O=C(Nc1ccc2cc1CCc1cccc(c1)Nc1ncc(Cl)c(n1)N2)c1cnccn1 [Example B44, bis(trifluoroacetate)]
Solution: 13

Exercise: # return recorded IC50 for entry O=C(Nc1ccc2c(c1)CCC2)Nc1ccc2cc1CCc1cccc(c1)Nc1ncc(Cl)c(n1)N2 [Example B103, trifluoroacetate]
Solution: 9

Exercise: # return recorded IC50 for entry COc1ccc(NC(=O)Nc2ccc3cc2CCc2cccc(c2)Nc2ncc(Cl)c(n2)N3)cc1 [Example B101, trifluoroacetate]
Solution: 4.5

Exercise: # return recorded IC50 for entry O=C(Nc1ccc2cc1CCc1cccc(c1)Nc1ncc(Cl)c(n1)N2)NC12CC3CC(CC(C3)C1)C2 [Example B127, trifluoroacetate]
Solution: 25

* * *

Would you kindly list ALK % of inhibition at a concentration of 500 nM or 1 mM for each of these compounds?
biological target: Recombinant Human Anaplastic Lymphoma Kinase (Homo sapiens, UniProt Q9UM73); construct: purchased Invitrogen, Carlsbad, Calif; test: ALK HTRF kinase assay; type: biochemical; conditions: compound at a concentration of 500 nM or 1 mM (not specified); cells shown as percentage
Sequence (Q9UM73 19-1620): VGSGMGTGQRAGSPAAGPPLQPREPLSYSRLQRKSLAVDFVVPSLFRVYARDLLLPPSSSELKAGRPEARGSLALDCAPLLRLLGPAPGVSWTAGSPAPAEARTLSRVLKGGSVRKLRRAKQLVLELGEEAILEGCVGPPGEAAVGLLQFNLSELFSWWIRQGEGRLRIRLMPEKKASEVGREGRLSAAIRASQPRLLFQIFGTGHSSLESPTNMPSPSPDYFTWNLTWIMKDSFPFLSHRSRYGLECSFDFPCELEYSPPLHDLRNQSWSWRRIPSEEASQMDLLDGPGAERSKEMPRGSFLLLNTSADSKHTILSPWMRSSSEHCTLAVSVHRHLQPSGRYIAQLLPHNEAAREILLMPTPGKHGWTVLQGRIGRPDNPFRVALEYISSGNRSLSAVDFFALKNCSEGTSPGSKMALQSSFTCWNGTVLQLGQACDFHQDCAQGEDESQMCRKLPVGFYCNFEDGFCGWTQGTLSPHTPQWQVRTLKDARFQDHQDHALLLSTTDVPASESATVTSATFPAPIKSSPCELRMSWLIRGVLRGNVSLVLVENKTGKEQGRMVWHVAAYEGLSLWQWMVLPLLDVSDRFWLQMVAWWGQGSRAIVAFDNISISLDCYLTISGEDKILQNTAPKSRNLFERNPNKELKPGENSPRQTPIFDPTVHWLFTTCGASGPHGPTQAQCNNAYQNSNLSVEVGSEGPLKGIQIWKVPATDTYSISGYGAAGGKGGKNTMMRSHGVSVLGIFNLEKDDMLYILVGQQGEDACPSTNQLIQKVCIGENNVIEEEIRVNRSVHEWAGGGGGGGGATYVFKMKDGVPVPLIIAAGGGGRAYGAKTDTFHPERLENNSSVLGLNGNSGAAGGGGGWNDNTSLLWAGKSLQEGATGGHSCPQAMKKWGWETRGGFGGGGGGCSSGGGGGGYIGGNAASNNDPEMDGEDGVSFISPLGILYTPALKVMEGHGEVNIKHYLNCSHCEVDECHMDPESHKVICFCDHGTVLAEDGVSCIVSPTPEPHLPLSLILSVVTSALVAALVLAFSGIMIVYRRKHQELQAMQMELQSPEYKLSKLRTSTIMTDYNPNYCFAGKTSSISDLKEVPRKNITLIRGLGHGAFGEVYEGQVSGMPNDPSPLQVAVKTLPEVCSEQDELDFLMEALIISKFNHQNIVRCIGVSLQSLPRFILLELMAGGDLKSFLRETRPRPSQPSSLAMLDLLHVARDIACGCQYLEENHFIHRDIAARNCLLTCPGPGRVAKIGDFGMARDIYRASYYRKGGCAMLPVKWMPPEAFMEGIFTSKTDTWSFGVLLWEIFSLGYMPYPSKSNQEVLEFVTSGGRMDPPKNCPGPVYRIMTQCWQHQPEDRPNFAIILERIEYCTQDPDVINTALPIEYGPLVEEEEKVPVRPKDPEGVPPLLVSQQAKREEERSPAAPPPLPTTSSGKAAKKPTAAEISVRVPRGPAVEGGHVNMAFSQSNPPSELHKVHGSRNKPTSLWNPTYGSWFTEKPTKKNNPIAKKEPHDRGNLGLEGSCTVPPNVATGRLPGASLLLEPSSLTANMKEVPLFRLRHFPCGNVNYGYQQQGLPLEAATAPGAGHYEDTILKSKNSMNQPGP
Where a name gives a salt, the structure may show the parent alone.
Please give a number only; it is taken to be in %.

Exercise: # return recorded ALK % of inhibition at a concentration of 500 nM or 1 mM for entry CC(C)C(=O)N1CC[C@H](NC(=O)Nc2ccc3cc2CCc2cccc(c2)Nc2ncc(Cl)c(n2)N3)C1 [Example B229, trifluoroacetate]
Solution: 6.5

Exercise: # return recorded ALK % of inhibition at a concentration of 500 nM or 1 mM for entry CC(C)(C)OC(=O)N1CCN(Cc2ccc3cc2CCc2cccc(c2)Nc2ncc(Cl)c(n2)N3)CC1 [Example B221, bis(trifluoroacetate)]
Solution: 8.1

Exercise: # return recorded ALK % of inhibition at a concentration of 500 nM or 1 mM for entry O=C(Nc1ccc2cc1CCc1cccc(c1)Nc1ncc(Cl)c(n1)N2)c1ccc(C(F)(F)F)nc1 [Example B77, bis(trifluoroacetate)]
Solution: 54

Exercise: # return recorded ALK % of inhibition at a concentration of 500 nM or 1 mM for entry O=C(Nc1ncc(Cl)s1)Nc1ccc2cc1CCc1cccc(c1)Nc1ncc(Cl)c(n1)N2 [Example B252, trifluoroacetate]
Solution: 20

Exercise: # return recorded ALK % of inhibition at a concentration of 500 nM or 1 mM for entry CC(C)c1ccccc1NC(=O)Nc1ccc2cc1CCc1cccc(c1)Nc1ncc(Cl)c(n1)N2 [Example B104, trifluoroacetate]
Solution: 55

Exercise: # return recorded ALK % of inhibition at a concentration of 500 nM or 1 mM for entry O=C(Nc1ccc(OC(F)(F)F)cc1)Nc1ccc2cc1CCc1cccc(c1)Nc1ncc(Cl)c(n1)N2 [Example B132, trifluoroacetate]
Solution: 5

* * *

Would you kindly list IC50 for each of these compounds?
biological target: TYK2 (Homo sapiens, UniProt P29597); experiment: TYK2 kinase inhibition (Table A1); assay type: biochemical
Sequence (P29597 whole entry): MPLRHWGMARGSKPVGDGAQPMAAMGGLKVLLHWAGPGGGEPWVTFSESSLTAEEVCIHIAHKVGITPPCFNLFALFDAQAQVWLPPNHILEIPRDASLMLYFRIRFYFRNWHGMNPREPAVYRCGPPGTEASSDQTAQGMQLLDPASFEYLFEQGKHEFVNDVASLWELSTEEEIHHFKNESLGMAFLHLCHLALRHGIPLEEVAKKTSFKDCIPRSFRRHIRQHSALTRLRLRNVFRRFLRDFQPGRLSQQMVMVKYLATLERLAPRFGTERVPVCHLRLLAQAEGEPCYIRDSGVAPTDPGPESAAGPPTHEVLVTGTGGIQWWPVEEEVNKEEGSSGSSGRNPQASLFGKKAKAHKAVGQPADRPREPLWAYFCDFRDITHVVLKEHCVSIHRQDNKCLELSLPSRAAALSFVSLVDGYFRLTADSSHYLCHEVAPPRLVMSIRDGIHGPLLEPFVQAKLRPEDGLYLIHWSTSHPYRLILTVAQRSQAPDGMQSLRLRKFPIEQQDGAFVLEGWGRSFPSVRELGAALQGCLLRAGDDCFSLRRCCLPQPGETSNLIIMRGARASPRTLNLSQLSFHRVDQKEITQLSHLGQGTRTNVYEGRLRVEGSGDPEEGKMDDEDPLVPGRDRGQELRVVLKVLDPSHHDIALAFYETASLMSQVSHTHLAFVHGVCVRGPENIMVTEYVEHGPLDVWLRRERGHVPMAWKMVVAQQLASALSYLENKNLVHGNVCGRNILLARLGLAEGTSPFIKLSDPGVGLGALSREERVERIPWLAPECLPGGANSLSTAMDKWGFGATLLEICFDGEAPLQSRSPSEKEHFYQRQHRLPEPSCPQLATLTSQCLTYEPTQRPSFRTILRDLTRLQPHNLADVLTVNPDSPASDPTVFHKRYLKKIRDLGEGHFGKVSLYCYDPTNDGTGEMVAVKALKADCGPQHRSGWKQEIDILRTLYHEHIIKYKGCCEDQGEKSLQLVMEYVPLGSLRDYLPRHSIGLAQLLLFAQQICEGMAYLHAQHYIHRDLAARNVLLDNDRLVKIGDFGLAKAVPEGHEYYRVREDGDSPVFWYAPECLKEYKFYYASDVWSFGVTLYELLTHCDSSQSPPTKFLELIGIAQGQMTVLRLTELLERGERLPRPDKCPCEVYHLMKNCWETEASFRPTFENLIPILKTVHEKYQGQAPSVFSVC
Counter-ions that a name gives are not always drawn.
Please give a number only; it is taken to be in nM.

Exercise: # return recorded IC50 for entry O=C(Nc1ccc2cc1CCc1cccc(c1)Nc1ncc(Cl)c(n1)N2)[C@@H]1CCN(C(=O)Nc2ccccc2)C1 [Example A54, trifluoroacetate]
Solution: 12

Exercise: # return recorded IC50 for entry O=C(CN1CCNCC1)Nc1ccc2cc1CCc1cccc(c1)Nc1ncc(Cl)c(n1)N2 [Example A114, tris(trifluoroacetate)]
Solution: 33

Exercise: # return recorded IC50 for entry Cc1cnc2nc1Nc1ccc(NC(=O)CC3CCN(c4nncs4)CC3)c(c1)CCc1cccc(c1)N2 [Example C53, trifluoroacetate]
Solution: 199

Exercise: # return recorded IC50 for entry CC(=O)N1CCC(CC(=O)Nc2ccc3cc2CCc2cncc(c2)Nc2ncc(Cl)c(n2)N3)C1 (stereo not drawn) [Example A94, bis(trifluoroacetate)]
Solution: 32

* * *

Would you kindly list log10 of IC50 for each of these molecules?
molecular target: human JAK3 (a.a. 781-1124) (Homo sapiens, UniProt P52333); construct: JAK3 (a.a. 781-1124); His tag (N); made in house; host or cells: insect cells (baculovirus); test: In vitro JAK kinase assay (HTRF, phosphorylation of a biotinylated peptide), JAK3; format: biochemical; settings: Table D1
Sequence (P52333 781-1124): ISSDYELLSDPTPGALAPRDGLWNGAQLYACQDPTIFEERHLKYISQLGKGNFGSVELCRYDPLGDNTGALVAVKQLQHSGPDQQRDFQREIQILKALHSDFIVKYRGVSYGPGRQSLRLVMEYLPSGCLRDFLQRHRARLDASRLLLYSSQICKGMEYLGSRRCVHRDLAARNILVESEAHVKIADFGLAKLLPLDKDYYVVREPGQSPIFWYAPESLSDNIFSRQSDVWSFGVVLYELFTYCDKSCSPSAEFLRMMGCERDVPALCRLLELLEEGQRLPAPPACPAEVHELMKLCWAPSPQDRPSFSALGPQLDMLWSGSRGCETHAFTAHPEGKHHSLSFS
Where a name gives a salt, the structure may show the parent alone.
Hello, just confirming the data are log10 of IC50 with units of µM.

Exercise: # return recorded log10 of IC50 for entry Clc1cnc2nc1Nc1ccc(N3CCNCC3)c(c1)CCc1cccc(c1)N2 [Example D83, bis(trifluoroacetate)]
Solution: -1.24

Exercise: # return recorded log10 of IC50 for entry O=C(C[C@@H]1CCCN(C(=O)Nc2ccccc2)C1)Nc1ccc2cc1CCc1cncc(c1)Nc1ncc(Cl)c(n1)N2 [Example D198, bis(trifluoroacetate)]
Solution: -1.16

Exercise: # return recorded log10 of IC50 for entry O=C1CCc2cccc(c2)Nc2nc(ncc2Cl)Nc2cccc(c2)N1 [Example D76, trifluoroacetate]
Solution: -0.93

Exercise: # return recorded log10 of IC50 for entry O=C(C[C@@H]1CCCNC1)Nc1ccc2cc1CCc1cccc(c1)Nc1ncc(Cl)c(n1)N2 [Example D192]
Solution: -0.98

Exercise: # return recorded log10 of IC50 for entry Clc1cnc2nc1Nc1cccc(c1)OCCc1cc(cc(-c3ccccc3)c1)N2 [Example D28, trifluoroacetate]
Solution: -1.28

Exercise: # return recorded log10 of IC50 for entry O=C(NC1CCCC1)N1CCN(c2cc(-c3cc4cc(c3)Nc3ncc(Cl)c(n3)Nc3cccc(c3)OCC4)ccn2)CC1 [Example D46, bis(trifluoroacetate)]
Solution: -1.68

Exercise: # return recorded log10 of IC50 for entry O=C(Nc1ccccc1)N1CCN(c2ccc(-c3cc4cc(c3)Nc3ncc(Cl)c(n3)Nc3cccc(c3)OCC4)cn2)CC1 [Example D42, bis(trifluoroacetate)]
Solution: -1.70

Exercise: # return recorded log10 of IC50 for entry O=C(NCc1ccccc1)N1CCN(c2ccc(-c3cc4cc(c3)Nc3ncc(Cl)c(n3)Nc3cccc(c3)OCC4)cn2)CC1 [Example D48, bis(trifluoroacetate)]
Solution: -1.57

Exercise: # return recorded log10 of IC50 for entry O=S1(=O)CCc2cccc(c2)Nc2ncc(Cl)c(n2)Nc2cccc1c2 [Example D24, trifluoroacetate]
Solution: -1.70

Exercise: # return recorded log10 of IC50 for entry CN1c2cccc(c2)OCCc2cccc(c2)Nc2ncc(Cl)c1n2 [Example D9, trifluoroacetate]
Solution: -0.31

Exercise: # return recorded log10 of IC50 for entry O=C(NCc1ccco1)Nc1cc2cc(c1)OCCSc1cccc(c1)Nc1nc(ncc1Cl)N2 [Example D67, trifluoroacetate]
Solution: -2.08

Exercise: # return recorded log10 of IC50 for entry O=C(Nc1cc2cc(c1)OCCSc1cccc(c1)Nc1nc(ncc1Cl)N2)c1ccccc1 [Example D57, trifluoroacetate]
Solution: -1.68

Exercise: # return recorded log10 of IC50 for entry O=C(c1cc2cc(c1)OCCSc1cccc(c1)Nc1nc(ncc1Cl)N2)N1CCN(c2ccccc2)CC1 [Example D53, bis(trifluoroacetate)]
Solution: -0.56

Exercise: # return recorded log10 of IC50 for entry O=C(C[C@@H]1CCCN(C(=O)c2ccccc2)C1)Nc1ccc2cc1CCc1cncc(c1)Nc1ncc(Cl)c(n1)N2 [Example D206, bis(trifluoroacetate)]
Solution: -0.83

Exercise: # return recorded log10 of IC50 for entry Clc1cnc2nc1Nc1cccc(c1)OCCc1cc(CN3CCNCC3)cc(c1)N2 [Example D191, tris(trifluoroacetate)]
Solution: -2.24

Exercise: # return recorded log10 of IC50 for entry Cc1n[nH]c(C)c1-c1cc2cc(c1)Nc1ncc(Cl)c(n1)Nc1cccc(c1)OCC2 [Example D30, bis(trifluoroacetate)]
Solution: -1.31

Exercise: # return recorded log10 of IC50 for entry O=C(Nc1ccc(C(F)(F)F)cc1)N1CCN(c2ccc3cc2CCc2cccc(c2)Nc2ncc(Cl)c(n2)N3)CC1 [Example D90, bis(trifluoroacetate)]
Solution: -0.97
